Assay: in vitro
Conditions: human, mt-4 cells
recorded_metric: CC50 at 144 h

Sample records with CC50 at 144 h:
# smiles_record, endpoint_result
records = [
    ("O=c1[nH]c(=O)n([C@H]2C[C@H](F)[C@@H](CO)O2)cc1F", "> 200 µM"),
    ("O=c1ccn([C@@H]2O[C@H](CO)[C@@H](F)[C@@H]2O)c(=O)[nH]1", "> 500 µM"),
    ("Nc1ccn([C@@H]2O[C@H](CO)[C@@H](F)[C@@H]2O)c(=O)n1", "> 100 µM"),
    ("O=c1[nH]c(=O)n([C@@H]2O[C@H](CO)[C@@H](F)[C@@H]2O)cc1Br", "> 100 µM"),
]

Please look at the items below and tell me CC50 at 144 h for each one, in order.
1. O=c1[nH]c(=O)n([C@H]2C[C@H](F)[C@@H](CO)O2)cc1CO
2. CCc1cn([C@H]2C[C@H](F)[C@@H](CO)O2)c(=O)[nH]c1=O
3. N#Cc1cn([C@H]2C[C@H](F)[C@@H](CO)O2)c(=O)[nH]c1=O

result:
1. > 500 µM
2. > 500 µM
3. > 500 µM
